- Test System: MOF-KAT8 (Homo sapiens, UniProt Q9H7Z6)
- Sequence (Q9H7Z6 with tags, fused parts or gaps): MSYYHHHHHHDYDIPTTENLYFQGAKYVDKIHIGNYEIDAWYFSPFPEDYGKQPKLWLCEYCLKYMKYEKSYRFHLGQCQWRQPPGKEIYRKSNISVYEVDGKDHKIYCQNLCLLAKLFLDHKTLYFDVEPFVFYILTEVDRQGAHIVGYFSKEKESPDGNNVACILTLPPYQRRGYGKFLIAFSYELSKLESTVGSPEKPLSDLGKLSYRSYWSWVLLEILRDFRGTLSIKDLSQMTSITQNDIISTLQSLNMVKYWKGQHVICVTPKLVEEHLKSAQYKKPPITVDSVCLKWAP
Measurement Kind: pIC50
In simple prose, pIC50 is minus the logarithm base ten of a concentration in moles per litre.

molecule="O=S(=O)(Nc1noc2cccc(Cl)c12)c1ccc(Cl)cc1 [Example 26]" test_system="MOF-KAT8 (Homo sapiens, UniProt Q9H7Z6)" measurement_kind=pIC50 assay_value=4.53
molecule="CCc1ccc2onc(NS(=O)(=O)c3cc4c(cc3OC)CCCC4)c2c1 [Example 204]" test_system="MOF-KAT8 (Homo sapiens, UniProt Q9H7Z6)" measurement_kind=pIC50 assay_value=5.51
molecule="CCc1cc(S(=O)(=O)Nc2noc3cccc(Cl)c23)c(=O)n(C)c1 [Example 107]" test_system="MOF-KAT8 (Homo sapiens, UniProt Q9H7Z6)" measurement_kind=pIC50 assay_value=4.38
molecule="COc1ccc(S(=O)(=O)Nc2noc3ccc(C)cc23)c(OC)c1 [Example 170]" test_system="MOF-KAT8 (Homo sapiens, UniProt Q9H7Z6)" measurement_kind=pIC50 assay_value=5.01
molecule="COc1cccc2onc(NS(=O)(=O)c3cccc4cc(C)cnc34)c12 [Example 73]" test_system="MOF-KAT8 (Homo sapiens, UniProt Q9H7Z6)" measurement_kind=pIC50 assay_value=5.46

// returns reported pIC50 for input CCOc1cccc2c(NS(=O)(=O)c3cc(CC)ccc3OC)noc12 [Example 132]
4.82

Given COc1cccc(OC)c1S(=O)(=O)Nc1noc2ccc(OC(F)(F)F)cc12 [Example 100] , state its recorded pIC50.
4.20

---

Record: pIC50 reported on TIP60-KAT5 (Homo sapiens, UniProt Q92993).
Sequence (Q92993 with tags, fused parts or gaps isoform Q92993-2): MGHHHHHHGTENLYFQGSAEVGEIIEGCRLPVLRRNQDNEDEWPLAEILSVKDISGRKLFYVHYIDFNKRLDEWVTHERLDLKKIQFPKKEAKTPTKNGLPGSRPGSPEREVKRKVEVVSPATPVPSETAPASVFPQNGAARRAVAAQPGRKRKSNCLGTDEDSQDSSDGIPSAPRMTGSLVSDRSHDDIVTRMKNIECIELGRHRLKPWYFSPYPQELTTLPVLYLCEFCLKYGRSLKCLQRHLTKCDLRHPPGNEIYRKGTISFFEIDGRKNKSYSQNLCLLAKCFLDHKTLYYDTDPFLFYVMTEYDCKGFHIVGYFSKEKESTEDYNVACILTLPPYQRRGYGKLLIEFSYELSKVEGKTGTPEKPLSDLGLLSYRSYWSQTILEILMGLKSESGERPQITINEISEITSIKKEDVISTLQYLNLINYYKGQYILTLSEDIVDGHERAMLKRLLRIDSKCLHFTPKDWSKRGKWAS
Field pIC50 (float): negative decimal logarithm of the concentration in molar.

Worked cases, pIC50 given:
compound="CCc1ccc(OC)c(S(=O)(=O)Nc2noc3ccc(OC)cc23)c1 [Example 111]" test_system="TIP60-KAT5 (Homo sapiens, UniProt Q92993)" assay_value=4.57
compound="O=S(=O)(Nc1noc2cccc(Cl)c12)c1cccc(S(F)(F)(F)(F)F)c1 [Example 36]" test_system="TIP60-KAT5 (Homo sapiens, UniProt Q92993)" assay_value=4.41

Consider the record given below.
Observed pIC50 on TIP60-KAT5 (Homo sapiens, UniProt Q92993) for CCOc1ccc2onc(NS(=O)(=O)c3cc(CC)ccc3OC)c2c1 [Example 109] , please.
4.16

---

Notes on IC50 obtained with QKF-KAT6B (Homo sapiens, UniProt Q8WYB5).
Sequence (Q8WYB5 whole entry): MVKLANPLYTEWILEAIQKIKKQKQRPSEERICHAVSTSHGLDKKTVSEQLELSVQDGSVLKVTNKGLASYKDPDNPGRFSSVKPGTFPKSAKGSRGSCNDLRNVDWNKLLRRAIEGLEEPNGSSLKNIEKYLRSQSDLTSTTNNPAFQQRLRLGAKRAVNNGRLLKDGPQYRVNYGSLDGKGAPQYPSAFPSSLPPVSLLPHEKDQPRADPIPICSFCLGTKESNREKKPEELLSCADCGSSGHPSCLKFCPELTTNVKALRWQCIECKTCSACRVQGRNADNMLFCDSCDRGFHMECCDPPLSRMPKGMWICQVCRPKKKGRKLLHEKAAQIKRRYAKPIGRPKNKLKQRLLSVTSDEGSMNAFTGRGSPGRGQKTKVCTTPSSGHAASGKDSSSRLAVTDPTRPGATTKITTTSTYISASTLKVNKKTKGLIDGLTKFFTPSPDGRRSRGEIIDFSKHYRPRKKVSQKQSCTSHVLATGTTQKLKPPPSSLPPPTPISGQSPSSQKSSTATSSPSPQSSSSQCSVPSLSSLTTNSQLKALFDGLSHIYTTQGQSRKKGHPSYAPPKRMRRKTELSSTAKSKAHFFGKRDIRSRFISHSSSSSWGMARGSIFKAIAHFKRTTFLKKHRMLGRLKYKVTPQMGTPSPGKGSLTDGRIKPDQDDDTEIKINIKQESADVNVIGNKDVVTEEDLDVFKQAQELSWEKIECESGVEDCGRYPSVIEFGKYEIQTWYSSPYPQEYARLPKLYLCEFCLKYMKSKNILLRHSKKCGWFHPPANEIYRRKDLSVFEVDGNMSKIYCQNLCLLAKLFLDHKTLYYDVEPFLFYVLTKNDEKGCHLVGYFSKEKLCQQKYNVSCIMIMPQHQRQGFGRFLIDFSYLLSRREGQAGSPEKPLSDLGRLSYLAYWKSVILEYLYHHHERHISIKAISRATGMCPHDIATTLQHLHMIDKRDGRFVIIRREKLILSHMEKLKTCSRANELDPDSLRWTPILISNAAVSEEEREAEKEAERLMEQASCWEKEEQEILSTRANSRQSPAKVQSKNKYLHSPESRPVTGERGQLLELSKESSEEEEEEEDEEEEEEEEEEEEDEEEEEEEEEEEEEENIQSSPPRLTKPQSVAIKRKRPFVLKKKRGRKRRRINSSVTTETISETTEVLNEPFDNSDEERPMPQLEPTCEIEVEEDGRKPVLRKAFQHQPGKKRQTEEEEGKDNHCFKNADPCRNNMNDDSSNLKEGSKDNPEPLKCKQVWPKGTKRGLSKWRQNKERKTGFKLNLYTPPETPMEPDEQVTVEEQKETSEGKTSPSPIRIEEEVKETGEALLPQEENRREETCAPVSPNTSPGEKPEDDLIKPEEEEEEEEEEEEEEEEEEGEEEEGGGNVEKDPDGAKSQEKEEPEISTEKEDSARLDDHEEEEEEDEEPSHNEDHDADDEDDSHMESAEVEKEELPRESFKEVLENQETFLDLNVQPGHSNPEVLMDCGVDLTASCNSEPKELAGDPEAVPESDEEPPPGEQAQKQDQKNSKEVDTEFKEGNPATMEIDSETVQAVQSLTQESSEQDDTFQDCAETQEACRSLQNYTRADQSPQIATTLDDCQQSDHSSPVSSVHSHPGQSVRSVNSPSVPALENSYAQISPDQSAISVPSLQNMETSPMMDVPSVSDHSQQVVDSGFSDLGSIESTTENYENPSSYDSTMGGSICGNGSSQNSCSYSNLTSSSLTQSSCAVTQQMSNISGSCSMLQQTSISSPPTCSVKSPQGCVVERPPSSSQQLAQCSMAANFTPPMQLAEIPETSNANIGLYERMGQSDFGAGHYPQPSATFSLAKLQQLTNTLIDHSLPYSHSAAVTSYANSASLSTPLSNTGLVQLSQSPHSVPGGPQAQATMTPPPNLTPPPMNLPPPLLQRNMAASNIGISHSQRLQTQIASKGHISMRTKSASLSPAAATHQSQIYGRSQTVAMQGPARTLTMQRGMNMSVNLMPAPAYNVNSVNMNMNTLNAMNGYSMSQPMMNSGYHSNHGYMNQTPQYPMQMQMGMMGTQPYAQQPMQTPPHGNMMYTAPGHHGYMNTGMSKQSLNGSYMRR
All answers are understood in nM, so give the number only.

Example cases with answers are listed next.
compound="COc1cccc2onc(NS(=O)(=O)c3cccc4cc(C)cnc34)c12 [Example 73]" assay_value=4050
compound="COc1cc(-c2ccccc2)cc(OC)c1S(=O)(=O)Nc1noc2cccc(OC)c12 [Example 95]" assay_value=1640
compound="COCc1cc(OC)c2c(NS(=O)(=O)c3c(OC)cccc3OC)noc2c1 [Example 173]" assay_value=40

// fetch QKF-KAT6B (Homo sapiens, UniProt Q8WYB5) IC50 for CCc1ccc(OC)c(S(=O)(=O)Nc2noc3ccc(C4CC4)c(Cl)c23)c1 [Example 207]
1450

Test system QKF-KAT6B (Homo sapiens, UniProt Q8WYB5); read-out IC50; what value for COCc1cc(OC)c2c(NS(=O)(=O)c3c(OC)ccc(Cl)c3OC)noc2c1 [Example 175] ?
821

Query IC50 on QKF-KAT6B (Homo sapiens, UniProt Q8WYB5) for CCOCc1cc(OC)c2c(NS(=O)(=O)c3c(OC)cccc3OC)noc2c1 [Example 172]
42

---

Recorded measurements of log10 IC50, one per entry
- Test System: MOZ-KAT6A (Homo sapiens, UniProt Q92794, A567V)
- Sequence (Q92794 with tags, fused parts or gaps A567V): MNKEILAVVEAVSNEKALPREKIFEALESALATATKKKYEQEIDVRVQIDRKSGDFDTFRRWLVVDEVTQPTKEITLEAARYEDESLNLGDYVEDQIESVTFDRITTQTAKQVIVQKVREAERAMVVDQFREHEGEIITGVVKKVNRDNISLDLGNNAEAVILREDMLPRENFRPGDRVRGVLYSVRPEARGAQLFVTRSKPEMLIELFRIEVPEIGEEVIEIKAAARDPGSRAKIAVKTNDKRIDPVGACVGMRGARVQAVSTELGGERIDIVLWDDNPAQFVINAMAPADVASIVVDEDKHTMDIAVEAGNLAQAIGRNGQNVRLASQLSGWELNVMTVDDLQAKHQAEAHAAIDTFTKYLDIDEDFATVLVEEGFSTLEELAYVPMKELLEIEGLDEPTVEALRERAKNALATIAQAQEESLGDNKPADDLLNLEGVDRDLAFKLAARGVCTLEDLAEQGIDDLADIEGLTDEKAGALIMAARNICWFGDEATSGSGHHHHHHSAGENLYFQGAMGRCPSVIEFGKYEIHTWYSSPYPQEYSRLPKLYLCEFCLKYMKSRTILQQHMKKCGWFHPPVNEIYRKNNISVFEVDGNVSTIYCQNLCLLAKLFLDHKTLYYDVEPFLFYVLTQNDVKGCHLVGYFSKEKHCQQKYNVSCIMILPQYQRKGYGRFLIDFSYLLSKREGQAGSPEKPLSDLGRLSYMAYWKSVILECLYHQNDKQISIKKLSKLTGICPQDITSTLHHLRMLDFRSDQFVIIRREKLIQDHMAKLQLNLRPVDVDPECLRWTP
- Assay Protocol: Acetyltransferase biochemical assay (AlphaScreen), KAT6A
Please interpret these as log10 of IC50 where IC50 is in µM.

As a guide, the following entries are already answered.
sample_smiles=CCc1ccc(OC)c(S(=O)(=O)Nc2noc3cc(-n4cccn4)ccc23)c1 measurement_kind="log10 IC50" assay_value=0.49
sample_smiles=COc1cccc(OCc2ccccc2)c1S(=O)(=O)Nc1noc2cccc(OC)c12 measurement_kind="log10 IC50" assay_value=-0.18
sample_smiles=O=S(=O)(Nc1noc2cccc(Cl)c12)c1cccc(-c2ccccc2)c1 measurement_kind="log10 IC50" assay_value=0.78

I would be grateful if you could share the reported log10 IC50 for COc1cccc(OC)c1S(=O)(=O)Nc1noc2cc(-c3cccc(O)c3)cc(OC)c12 .
-2.22

log10 IC50 for COc1cc(C)cc(-c2cc(OC)c3c(NS(=O)(=O)c4c(OC)cccc4OC)noc3c2)c1 ?
-0.86

For the molecule shown here, COc1cccc2onc(NS(=O)(=O)c3c(C)ccc4cccnc34)c12 , give the reported log10 IC50.
1.03

log10 IC50 for COc1cccc(OC(C)C)c1S(=O)(=O)Nc1noc2cccc(OC)c12 ?
1.01

Endpoint output: log10 IC50 of CCc1ccc(OC)c(S(=O)(=O)Nc2noc3c(C)cccc23)c1 . Value?
0.75

Looking for the measured log10 IC50 of CCc1ccc(OC)c(S(=O)(=O)Nc2noc3cc(Br)ccc23)c1 , can you help?
0.46

---

So I've got pIC50 readings for TIP60-KAT5 (Homo sapiens, UniProt Q92993), take a look.
Quick note: pIC50 values are minus log10 of concentrations in mol/L.

Before answering, review these 5 worked examples.
sample_smiles=CCc1ccc(OC)c(S(=O)(=O)Nc2noc3cccc(C4CC4)c23)c1 test_system="TIP60-KAT5 (Homo sapiens, UniProt Q92993)" assay_value=5.32
sample_smiles=COc1cccc2onc(NS(=O)(=O)c3cccc4ccoc34)c12 test_system="TIP60-KAT5 (Homo sapiens, UniProt Q92993)" assay_value=4.50
sample_smiles=CCc1ccc(OC)c(S(=O)(=O)Nc2noc3cc(OCC4CC4)ccc23)c1 test_system="TIP60-KAT5 (Homo sapiens, UniProt Q92993)" assay_value=4.29
sample_smiles=COc1cccc(OC)c1S(=O)(=O)Nc1noc2cc(COCC(F)(F)F)cc(OC)c12 test_system="TIP60-KAT5 (Homo sapiens, UniProt Q92993)" assay_value=3.91
sample_smiles=CCc1ccc(OC)c(S(=O)(=O)Nc2noc3cccc(-c4cncnc4)c23)c1 test_system="TIP60-KAT5 (Homo sapiens, UniProt Q92993)" assay_value=4.13

Value wanted: pIC50 (TIP60-KAT5 (Homo sapiens, UniProt Q92993)) of entry COc1ccc(S(=O)(=O)Nc2noc3cc(C(N)=O)c(C)cc23)c2ncccc12
5.47

What reported pIC50 corresponds to Cc1ccc(-n2cccn2)cc1S(=O)(=O)Nc1noc2cccc(Cl)c12 on TIP60-KAT5 (Homo sapiens, UniProt Q92993)?
4.09

Request body: readout pIC50, system TIP60-KAT5 (Homo sapiens, UniProt Q92993), query CCOc1cccc2c(NS(=O)(=O)c3cc(CC)ccc3OC)noc12 . Return the value.
4.28

Please tell me: pIC50 of COc1cc(OC)c(S(=O)(=O)Nc2noc3cccc(OC)c23)c(OC)c1 , system TIP60-KAT5 (Homo sapiens, UniProt Q92993)?
4.55

Short answer please: pIC50, TIP60-KAT5 (Homo sapiens, UniProt Q92993), entry O=S(=O)(Nc1noc2cccc(Cl)c12)c1cccc2nonc12
4.52

---

Record: pIC50 reported on UniProt:Q92993.
The value called pIC50 is obtained by taking minus log10 of the concentration in mol/L.

compound="CCc1ccc(S(=O)(=O)Nc2noc3ccccc23)c(OC)c1 [Example 182]" measurement_kind=pIC50 assay_value=4.18
compound="COc1cccc(OC)c1S(=O)(=O)Nc1noc2c(-c3ccccc3)cc(C)cc12 [Example 252]" measurement_kind=pIC50 assay_value=3.99
compound="COc1cccc(OC)c1S(=O)(=O)Nc1noc2cc(-c3ncco3)c(C)cc12 [Example 102]" measurement_kind=pIC50 assay_value=5.03

Record request: pIC50 value, item CCOCc1cc(OC)c2c(NS(=O)(=O)c3c(OC)cccc3OC)noc2c1 [Example 172]
5.04

---

Each entry below carries its reported pIC50.
- Test System: TIP60-KAT5 (Homo sapiens, UniProt Q92993)
Quick note: pIC50 values are minus log10 of concentrations in mol/L.

Known pIC50 results, listed for orientation:
molecule="COc1cc(C)c(C)cc1S(=O)(=O)Nc1noc2cccc(Cl)c12 [Example 33]" test_system="TIP60-KAT5 (Homo sapiens, UniProt Q92993)" assay_value=4.04
molecule="O=S(=O)(Nc1noc2cccc(Cl)c12)c1ccc(OCc2ccccc2)cc1 [Example 9]" test_system="TIP60-KAT5 (Homo sapiens, UniProt Q92993)" assay_value=4.39
molecule="COCc1cc(OC)c2c(NS(=O)(=O)c3c(OC)cccc3OC)noc2c1I [Example 160]" test_system="TIP60-KAT5 (Homo sapiens, UniProt Q92993)" assay_value=4.34
molecule="COc1ccc(C(F)(F)F)c(OC)c1S(=O)(=O)Nc1noc2cccc(OC)c12 [Example 101]" test_system="TIP60-KAT5 (Homo sapiens, UniProt Q92993)" assay_value=4.01
molecule="COc1ccc(C(C)(C)C)cc1S(=O)(=O)Nc1noc2ccccc12 [Example 48]" test_system="TIP60-KAT5 (Homo sapiens, UniProt Q92993)" assay_value=4.03
molecule="COc1cccc2onc(NS(=O)(=O)c3cccc4cc(C)cnc34)c12 [Example 73]" test_system="TIP60-KAT5 (Homo sapiens, UniProt Q92993)" assay_value=5.67
molecule="COc1ccc(-c2cc(OC)c3c(NS(=O)(=O)c4c(OC)cccc4OC)noc3c2)cn1 [Example 247]" test_system="TIP60-KAT5 (Homo sapiens, UniProt Q92993)" assay_value=4.02
molecule="COc1cc(COc2cccc(OC)c2S(=O)(=O)Nc2noc3cccc(OC)c23)ccn1 [Example 216]" test_system="TIP60-KAT5 (Homo sapiens, UniProt Q92993)" assay_value=3.91

Which pIC50 value belongs to O=S(=O)(Nc1noc2cccc(Cl)c12)c1cccc2cccnc12 [Example 123] ?
4.23

# lookup: pIC50 of O=S(=O)(Nc1noc2cccc(Cl)c12)c1ccccc1OC(F)F [Example 38]
4.10

Look up pIC50: COc1ccccc1S(=O)(=O)Nc1noc2cccc(Cl)c12 [Example 155]
6.17

Endpoint output: pIC50 of CCc1ccc(OC)c(S(=O)(=O)Nc2noc3c(CO)cccc23)c1 [Example 186] . Value?
4.07

Entry COc1ccc(S(=O)(=O)Nc2noc3cccc(OC)c23)c2ncccc12 [Example 74] has what pIC50?
5.09

// pIC50 lookup, key: COc1ccc(Br)cc1S(=O)(=O)Nc1noc2cccc(Cl)c12 [Example 45]
4.46

Would you mind telling me what pIC50 value was observed for COc1ccc2cccnc2c1S(=O)(=O)Nc1noc2cccc(OC)c12 [Example 98] ?
4.50

What does the data say about its pIC50? Entry: CC(C)c1ccc(S(=O)(=O)Nc2noc3cccc(Cl)c23)cc1 [Example 22]
4.41

Fill in the blank: the reported pIC50 of COc1cccc(OC)c1S(=O)(=O)Nc1noc2ccc(OC(F)(F)F)cc12 [Example 100] is ____.
4.29

// pIC50 lookup, key: Cc1ccc(-c2ccno2)cc1S(=O)(=O)Nc1noc2cccc(Cl)c12 [Example 19]
4.19

# get_value(readout='pIC50', item= COc1cc(C)cc(-c2cc(OC)c3c(NS(=O)(=O)c4c(OC)cccc4OC)noc3c2)c1 [Example 248] )
5.03

What measured pIC50 goes with CCc1ccc(OC)c(S(=O)(=O)Nc2noc3cccc(Cl)c23)c1 [Example 154] ?
4.60

Requested field: pIC50. Item: COc1cccc(OC)c1S(=O)(=O)Nc1noc2cc(-c3ccccn3)c(C)cc12 [Example 241]
4.58

Please look up its pIC50: CCc1ccc(OC)c(S(=O)(=O)Nc2noc3ccc(C4CC4)c(Cl)c23)c1 [Example 207]
5.34

Reported pIC50, molecule CCc1ccc(OC)c(S(=O)(=O)Nc2noc3cccc(OC)c23)c1OC [Example 94] : ____
3.91

Can you share its pIC50? I mean this molecule: COc1ccc(S(=O)(=O)Nc2noc3ccc(C)cc23)c(OC)c1 [Example 170]
5.32
